# Experimental protocol: Inhibition of […] binding to recombinant human chimeric NPY5/NPY1 receptor expressed in Sf9 cells

| Smiles str | Endpoint unit | Ki |
| --- | --- | --- |
| C[C@H](O)CNC(=O)[C@H]1CC[C@H](c2nc(-c3cccc(C(F)(F)F)c3)c[nH]2)CC1 | nM | 31 |
| CC(C)(CO)NC(=O)[C@H]1CC[C@H](c2nc(-c3cccc(C(F)(F)F)c3)c[nH]2)CC1 | nM | 2.8 |
| O=S(=O)(NC[C@H]1CC[C@H](c2nc(-c3cccc(C(F)(F)F)c3)c[nH]2)CC1)c1ccccc1 | nM | 0.2 |
| CC(=O)CNC(=O)[C@H]1CC[C@H](c2nc(-c3cccc(Br)c3)c[nH]2)CC1 | nM | 10 |
| CN(C[C@H]1CC[C@H](c2nc(-c3cccc(C(F)(F)F)c3)c[nH]2)CC1)S(=O)(=O)c1ccccc1 | nM | 1.3 |
| FC(F)(F)c1cccc(-c2c[nH]c(-c3ccccc3)n2)c1 | nM | 2.5 |
| C[C@@H](O)CNC(=O)[C@H]1CC[C@H](c2nc(-c3cccc(C(F)(F)F)c3)c[nH]2)CC1 | nM | 8 |
| O=C(NS(=O)(=O)c1ccccc1)[C@H]1CC[C@H](c2nc(-c3cccc(C(F)(F)F)c3)c[nH]2)CC1 | nM | 31 |
| FC(F)(F)c1cccc(-c2c[nH]c(C3CCCCC3)n2)c1 | nM | 6 |
| CC(=O)NNC(=O)[C@H]1CC[C@H](c2nc(-c3cccc(C(F)(F)F)c3)c[nH]2)CC1 | nM | 1.4 |
| O=C(NCCO)[C@H]1CC[C@H](c2nc(-c3cccc(C(F)(F)F)c3)c[nH]2)CC1 | nM | 11 |
| O=C(NCCCO)[C@H]1CC[C@H](c2nc(-c3cccc(C(F)(F)F)c3)c[nH]2)CC1 | nM | 185 |
| COCCNC(=O)[C@H]1CC[C@H](c2nc(-c3cccc(C(F)(F)F)c3)c[nH]2)CC1 | nM | 99 |
| NCCNC(=O)[C@H]1CC[C@H](c2nc(-c3cccc(C(F)(F)F)c3)c[nH]2)CC1 | nM | 915 |

====

# Experimental protocol: Volume of distribution at steady state
# Format: ADME, organism-based
# Protocol conditions: in vivo; read-out: Vss
Reported property: Vd (L/kg)

| Smiles str | Reported property | Numeric readout |
| --- | --- | --- |
| CC(C)(CO)NC(=O)[C@H]1CC[C@H](c2nc(-c3cccc(C(F)(F)F)c3)c[nH]2)CC1 | Vd | 6 |

====

# Experimental protocol: Maximum plasma concentration after oral dosing in rat
# Format: ADME, organism-based
# Parameters: route oral

| Smiles str | Cmax, ng/mL |
| --- | --- |
| CC(C)(CO)NC(=O)[C@H]1CC[C@H](c2nc(-c3cccc(C(F)(F)F)c3)c[nH]2)CC1 | 714 |

====

# Experimental protocol: Oral half life of the compound
# Type: ADME, organism-based
# Protocol conditions: in vivo

| Smiles str | Endpoint unit | half-life |
| --- | --- | --- |
| CC(C)(CO)NC(=O)[C@H]1CC[C@H](c2nc(-c3cccc(C(F)(F)F)c3)c[nH]2)CC1 | h | 13 |
